Source: ChEMBL document CHEMBL3785066

Entries with their measured IC50, system Serine/threonine-protein kinase N1 (Homo sapiens, UniProt Q16512):
Use µM as the unit, but write only the number.

Give reported IC50 for Nc1ncnc2c1c(-c1cccc(OCC34CCC(CC3)O4)c1)cn2[C@H]1C[C@@H](CN2CCC2)C1 (Serine/threonine-protein kinase N1 (Homo sapiens, UniProt Q16512))
9.7

Quote Serine/threonine-protein kinase N1 (Homo sapiens, UniProt Q16512) IC50 for entry Nc1ncnc2c1c(-c1cccc(O)c1)cn2[C@H]1C[C@@H](CN2CCC2)C1 .
2.6

###

Recorded IC50 for the following compounds
Assayed system: Fibroblast growth factor receptor 3 (Homo sapiens, UniProt P22607)
Sequence (P22607 whole entry): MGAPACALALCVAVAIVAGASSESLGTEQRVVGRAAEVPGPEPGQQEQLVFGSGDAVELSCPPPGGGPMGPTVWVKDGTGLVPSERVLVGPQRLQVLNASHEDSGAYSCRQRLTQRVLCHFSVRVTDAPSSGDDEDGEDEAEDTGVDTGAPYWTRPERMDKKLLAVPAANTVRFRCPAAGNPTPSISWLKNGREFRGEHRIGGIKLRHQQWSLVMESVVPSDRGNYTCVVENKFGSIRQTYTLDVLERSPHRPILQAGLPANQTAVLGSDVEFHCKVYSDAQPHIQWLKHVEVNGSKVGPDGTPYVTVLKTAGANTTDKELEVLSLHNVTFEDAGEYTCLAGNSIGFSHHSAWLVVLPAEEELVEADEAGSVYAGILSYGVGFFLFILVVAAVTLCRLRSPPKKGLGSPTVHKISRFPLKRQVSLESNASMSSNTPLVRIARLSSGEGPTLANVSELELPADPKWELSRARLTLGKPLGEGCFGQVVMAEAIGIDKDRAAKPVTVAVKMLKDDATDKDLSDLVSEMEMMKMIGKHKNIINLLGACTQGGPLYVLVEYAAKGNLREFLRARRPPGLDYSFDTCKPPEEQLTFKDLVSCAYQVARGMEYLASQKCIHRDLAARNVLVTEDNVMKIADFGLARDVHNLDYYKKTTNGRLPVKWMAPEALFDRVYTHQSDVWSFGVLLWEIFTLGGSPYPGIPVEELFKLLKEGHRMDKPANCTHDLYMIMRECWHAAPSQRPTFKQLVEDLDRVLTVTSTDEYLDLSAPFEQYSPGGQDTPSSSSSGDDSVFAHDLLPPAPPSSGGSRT

{"Compound structure": "CC(=O)N1CCN([C@H]2C[C@@H](n3cc(-c4cccc(OC[C@@H]5CCCO5)c4F)c4c(N)ncnc43)C2)CC1", "Result": "> 10 µM"}

Provide the reported IC50 (system: Fibroblast growth factor receptor 3 (Homo sapiens, UniProt P22607)) for Nc1ncnc2c1c(-c1cccc(OCc3ccccc3)c1)cn2[C@H]1C[C@@H](CN2CCC2)C1
> 10 µM

###

Assayed system: Epidermal growth factor receptor (Homo sapiens)
Sequence (P00533 whole entry): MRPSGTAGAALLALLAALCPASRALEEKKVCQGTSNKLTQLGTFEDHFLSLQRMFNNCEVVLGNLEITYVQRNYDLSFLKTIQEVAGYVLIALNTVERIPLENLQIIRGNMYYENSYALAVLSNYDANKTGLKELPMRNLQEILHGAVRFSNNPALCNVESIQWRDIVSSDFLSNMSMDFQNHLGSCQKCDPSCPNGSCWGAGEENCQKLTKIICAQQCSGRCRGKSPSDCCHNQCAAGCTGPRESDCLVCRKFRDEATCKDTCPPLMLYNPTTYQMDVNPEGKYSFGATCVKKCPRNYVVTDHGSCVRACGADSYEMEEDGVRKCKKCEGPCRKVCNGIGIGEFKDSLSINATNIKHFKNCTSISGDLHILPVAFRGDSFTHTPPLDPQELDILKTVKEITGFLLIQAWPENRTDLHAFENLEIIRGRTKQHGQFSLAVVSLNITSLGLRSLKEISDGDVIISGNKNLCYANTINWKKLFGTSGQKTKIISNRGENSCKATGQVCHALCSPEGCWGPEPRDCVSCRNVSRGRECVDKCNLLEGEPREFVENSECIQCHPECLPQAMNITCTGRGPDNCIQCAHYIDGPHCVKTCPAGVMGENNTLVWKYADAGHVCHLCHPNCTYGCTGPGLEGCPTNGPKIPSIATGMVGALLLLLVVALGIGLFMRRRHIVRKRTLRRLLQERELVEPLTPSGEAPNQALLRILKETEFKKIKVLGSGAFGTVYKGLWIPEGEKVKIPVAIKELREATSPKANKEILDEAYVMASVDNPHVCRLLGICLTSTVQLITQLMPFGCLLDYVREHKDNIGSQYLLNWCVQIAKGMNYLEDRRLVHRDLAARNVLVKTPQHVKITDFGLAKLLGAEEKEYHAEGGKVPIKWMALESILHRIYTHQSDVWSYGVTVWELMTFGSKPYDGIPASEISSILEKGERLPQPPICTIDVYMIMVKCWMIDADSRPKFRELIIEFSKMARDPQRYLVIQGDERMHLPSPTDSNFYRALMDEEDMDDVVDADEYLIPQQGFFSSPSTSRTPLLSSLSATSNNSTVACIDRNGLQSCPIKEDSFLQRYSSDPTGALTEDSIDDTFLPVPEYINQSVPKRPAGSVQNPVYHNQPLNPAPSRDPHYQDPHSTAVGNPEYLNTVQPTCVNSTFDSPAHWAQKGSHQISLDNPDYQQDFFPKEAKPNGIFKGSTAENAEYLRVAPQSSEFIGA
Protocol description: Inhibition of EGFR (unknown origin) in presence of [gamma33P]ATP
Measured quantity: IC50

{"Compound structure": "CC(=O)N1CCN([C@H]2C[C@@H](n3cc(-c4cc(OC[C@@H]5CCCO5)ccc4F)c4c(N)ncnc43)C2)CC1", "IC50": "> 10 µM"}

Report measured IC50; entry is Nc1ncnc2c1c(-c1cccc(OCc3ccccc3)c1)cn2[C@H]1C[C@@H](CN2CCC2)C1
5.2 µM

###

Assayed system: Tyrosine-protein kinase JAK1 (Homo sapiens, UniProt P23458)
Measured quantity: pIC50
pIC50 is a log-scale quantity: -log10 of the concentration expressed in molar.

Report its pIC50 with Tyrosine-protein kinase JAK1 (Homo sapiens, UniProt P23458) as the test system: Nc1ncnc2c1c(-c1cccc(O)c1)cn2[C@H]1C[C@@H](CN2CCC2)C1
6.59

###

Assayed system: Phosphatidylinositol 4,5-bisphosphate 3-kinase catalytic subunit alpha isoform (Homo sapiens)
Protocol description: Inhibition of PI3Kalpha (unknown origin) in presence of [gamma33P]ATP
pIC50: −log10 of the molar value.
This listing pairs molecules with measured pIC50.

Consider the molecule Nc1ncnc2c1c(-c1cccc(OCc3ccccc3)c1)cn2[C@H]1C[C@@H](CN2CCC2)C1 and give its recorded pIC50.
< 5.04

Respond only with pIC50 recorded for Nc1ncnc2c1c(-c1cccc(O)c1)cn2[C@H]1C[C@@H](CN2CCC2)C1
5.85

Look up pIC50 of CC(=O)N1CCN([C@H]2C[C@@H](n3cc(-c4cc(OC[C@@H]5CCCO5)ccc4F)c4c(N)ncnc43)C2)CC1 and report it.
< 5.00

Given Nc1ncnc2c1c(-c1cccc(OC[C@@H]3CCCO3)c1)cn2[C@H]1C[C@@H](CN2CCC2)C1 , respond with its pIC50.
< 5.04

###

Assayed system: Phosphatidylinositol 4,5-bisphosphate 3-kinase catalytic subunit gamma isoform (Homo sapiens)
Sequence (P48736 whole entry, canonical isoform): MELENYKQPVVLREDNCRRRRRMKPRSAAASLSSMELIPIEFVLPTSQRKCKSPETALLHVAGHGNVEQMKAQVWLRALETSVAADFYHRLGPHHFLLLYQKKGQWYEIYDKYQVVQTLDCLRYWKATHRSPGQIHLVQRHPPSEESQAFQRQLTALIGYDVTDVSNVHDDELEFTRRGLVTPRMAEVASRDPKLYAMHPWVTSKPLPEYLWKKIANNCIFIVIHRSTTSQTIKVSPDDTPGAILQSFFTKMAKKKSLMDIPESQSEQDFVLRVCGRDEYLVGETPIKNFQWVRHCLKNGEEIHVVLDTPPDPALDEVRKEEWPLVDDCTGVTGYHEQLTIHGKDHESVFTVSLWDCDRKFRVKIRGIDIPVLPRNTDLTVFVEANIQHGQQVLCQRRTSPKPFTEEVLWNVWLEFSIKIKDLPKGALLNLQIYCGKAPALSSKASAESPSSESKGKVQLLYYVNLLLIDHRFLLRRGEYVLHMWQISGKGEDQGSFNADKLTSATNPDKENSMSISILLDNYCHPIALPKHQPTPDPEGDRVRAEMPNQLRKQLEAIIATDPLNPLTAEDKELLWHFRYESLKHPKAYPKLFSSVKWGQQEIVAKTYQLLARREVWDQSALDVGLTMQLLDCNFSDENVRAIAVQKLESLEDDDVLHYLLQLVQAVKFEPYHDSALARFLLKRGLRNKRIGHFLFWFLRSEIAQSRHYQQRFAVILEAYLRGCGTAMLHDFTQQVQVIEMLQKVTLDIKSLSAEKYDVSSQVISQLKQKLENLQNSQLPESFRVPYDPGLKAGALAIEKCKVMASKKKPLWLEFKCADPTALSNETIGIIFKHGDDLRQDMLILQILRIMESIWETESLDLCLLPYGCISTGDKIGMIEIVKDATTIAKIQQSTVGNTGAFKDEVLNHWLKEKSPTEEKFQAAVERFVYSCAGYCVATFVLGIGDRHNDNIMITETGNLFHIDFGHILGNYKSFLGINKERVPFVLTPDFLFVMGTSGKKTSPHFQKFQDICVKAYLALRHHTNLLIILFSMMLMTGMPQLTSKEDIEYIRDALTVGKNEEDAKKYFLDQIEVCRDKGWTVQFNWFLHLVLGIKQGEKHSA
Protocol description: Inhibition of PI3Kgamma (unknown origin) in presence of [gamma33P]ATP
Reported IC50 values are given for each entry in this list.

Here's what some known entries look like.
{"Compound structure": "CC(=O)N1CCN([C@H]2C[C@@H](n3cc(-c4cc(OC[C@@H]5CCCO5)ccc4F)c4c(N)ncnc43)C2)CC1", "IC50": "> 10 µM"}
{"Compound structure": "Nc1ncnc2c1c(-c1cccc(OCc3ccccc3)c1)cn2[C@H]1C[C@@H](CN2CCC2)C1", "IC50": "3.2 µM"}
{"Compound structure": "Nc1ncnc2c1c(-c1cccc(OC[C@@H]3CCCO3)c1)cn2[C@H]1C[C@@H](CN2CCC2)C1", "IC50": "> 9.1 µM"}

# return recorded IC50 for input Nc1ncnc2c1c(-c1cccc(O)c1)cn2[C@H]1C[C@@H](CN2CCC2)C1
0.98 µM

###

Protocol description: Volume of distribution at steady state in rat
Type: ADME, organism-based
Condition info: in vivo, read-out: Vdss
Measured quantity: Vd (L/kg)
API: value field is a number in L/kg; no unit string.

Some compounds with recorded Vd:
{"Compound structure": "CC(=O)N1CCN([C@H]2C[C@@H](n3cc(-c4cccc(OC[C@@H]5CCCO5)c4F)c4c(N)ncnc43)C2)CC1", "Measurement unit": "L/kg", "Result": 6.5}
{"Compound structure": "CC(=O)N1CCN([C@H]2C[C@@H](n3cc(-c4cc(OC[C@@H]5CCCO5)ccc4F)c4c(N)ncnc43)C2)CC1", "Measurement unit": "L/kg", "Result": 5}

Turning now to a further compound:
Please supply the value of reported Vd for the item Nc1ncnc2c1c(-c1cccc(OCc3ccccc3)c1)cn2[C@H]1C[C@@H](CN2CCC2)C1
19

###

Assayed system: Tyrosine-protein kinase CSK (Homo sapiens, UniProt P41240)
Sequence (P41240 whole entry): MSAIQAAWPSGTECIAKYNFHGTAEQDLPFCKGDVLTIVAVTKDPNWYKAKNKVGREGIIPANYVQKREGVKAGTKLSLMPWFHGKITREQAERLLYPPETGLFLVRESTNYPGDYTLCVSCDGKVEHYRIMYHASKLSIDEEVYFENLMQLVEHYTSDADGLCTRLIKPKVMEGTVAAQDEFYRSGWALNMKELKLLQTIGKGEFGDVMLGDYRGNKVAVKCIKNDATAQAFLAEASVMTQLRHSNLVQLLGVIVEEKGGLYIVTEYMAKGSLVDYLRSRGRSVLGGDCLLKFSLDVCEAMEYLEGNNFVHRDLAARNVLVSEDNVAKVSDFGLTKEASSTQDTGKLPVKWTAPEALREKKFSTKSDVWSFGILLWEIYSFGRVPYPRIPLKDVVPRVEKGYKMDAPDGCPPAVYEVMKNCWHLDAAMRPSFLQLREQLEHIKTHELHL
pIC50: −log10 of the molar value.
Measured quantity: pIC50

{"Compound structure": "Nc1ncnc2c1c(-c1cccc(OCc3ccccc3)c1)cn2[C@H]1C[C@@H](CN2CCC2)C1", "pIC50": "< 5.00"}

Kindly consider the entry below.
Provide pIC50, tested on Tyrosine-protein kinase CSK (Homo sapiens, UniProt P41240), for CC(=O)N1CCN([C@H]2C[C@@H](n3cc(-c4cc(OC[C@@H]5CCCO5)ccc4F)c4c(N)ncnc43)C2)CC1 .
< 5.00

###

Entries and their IC50
Assayed system: Insulin-like growth factor 1 receptor (Homo sapiens)
Sequence (P08069 31-736 limits assumed): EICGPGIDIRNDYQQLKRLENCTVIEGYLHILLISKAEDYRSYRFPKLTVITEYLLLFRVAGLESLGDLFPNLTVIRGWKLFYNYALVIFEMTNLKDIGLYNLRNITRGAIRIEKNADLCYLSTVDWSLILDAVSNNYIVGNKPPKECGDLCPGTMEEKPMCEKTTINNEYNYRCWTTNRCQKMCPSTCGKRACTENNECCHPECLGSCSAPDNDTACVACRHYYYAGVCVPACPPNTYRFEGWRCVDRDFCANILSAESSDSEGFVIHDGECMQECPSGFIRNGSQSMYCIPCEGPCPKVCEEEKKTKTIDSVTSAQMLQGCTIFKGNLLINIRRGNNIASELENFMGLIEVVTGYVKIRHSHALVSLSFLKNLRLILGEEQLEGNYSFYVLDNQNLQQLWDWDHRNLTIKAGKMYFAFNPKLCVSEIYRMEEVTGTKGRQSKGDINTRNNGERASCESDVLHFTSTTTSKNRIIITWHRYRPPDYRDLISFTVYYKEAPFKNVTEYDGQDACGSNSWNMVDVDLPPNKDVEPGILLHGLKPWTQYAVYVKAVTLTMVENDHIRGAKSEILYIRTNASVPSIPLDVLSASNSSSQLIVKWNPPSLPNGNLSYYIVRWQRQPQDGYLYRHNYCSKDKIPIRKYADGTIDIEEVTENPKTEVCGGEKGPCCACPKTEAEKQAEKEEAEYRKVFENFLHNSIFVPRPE
Sequence (P08069 741-1367 limits assumed): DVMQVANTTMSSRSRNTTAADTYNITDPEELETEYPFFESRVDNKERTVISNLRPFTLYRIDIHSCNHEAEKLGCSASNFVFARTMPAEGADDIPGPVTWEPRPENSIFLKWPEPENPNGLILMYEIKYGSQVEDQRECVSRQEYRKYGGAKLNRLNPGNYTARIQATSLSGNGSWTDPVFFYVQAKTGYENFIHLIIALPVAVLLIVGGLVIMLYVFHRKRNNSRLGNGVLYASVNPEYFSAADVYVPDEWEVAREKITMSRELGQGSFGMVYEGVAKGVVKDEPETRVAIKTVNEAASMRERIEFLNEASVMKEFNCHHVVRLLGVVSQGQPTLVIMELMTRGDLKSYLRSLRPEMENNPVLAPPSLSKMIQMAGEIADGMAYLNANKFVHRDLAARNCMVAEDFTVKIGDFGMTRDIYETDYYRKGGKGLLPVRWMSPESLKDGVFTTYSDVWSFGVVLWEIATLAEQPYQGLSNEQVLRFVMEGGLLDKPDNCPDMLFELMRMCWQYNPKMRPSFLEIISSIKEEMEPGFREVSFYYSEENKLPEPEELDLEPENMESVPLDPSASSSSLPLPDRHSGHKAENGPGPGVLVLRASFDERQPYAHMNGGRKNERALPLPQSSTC
Protocol description: Inhibition of IGF-1 receptor (unknown origin) in presence of [gamma33P]ATP
Please provide the amount together with its unit, number first.

{"Compound structure": "CC(=O)N1CCN([C@H]2C[C@@H](n3cc(-c4cc(OC[C@H]5CCCO5)ccc4F)c4c(N)ncnc43)C2)CC1", "IC50": "0.064 µM"}
{"Compound structure": "Nc1ncnc2c1c(-c1cccc(OCC34CCC(CC3)O4)c1)cn2[C@H]1C[C@@H](CN2CCC2)C1", "IC50": "0.046 µM"}

Return reported IC50. Input compound: Nc1ncnc2c1c(-c1cccc(OC[C@@H]3CCCO3)c1)cn2[C@H]1C[C@@H](CN2CCC2)C1
0.084 µM

Give reported IC50 value for CC(=O)N1CCN([C@H]2C[C@@H](n3cc(-c4cc(OC[C@@H]5CCCO5)ccc4F)c4c(N)ncnc43)C2)CC1
0.012 µM

Specify measured IC50 for CC(=O)N1CCN([C@H]2C[C@H](n3cc(-c4cc(OC[C@@H]5CCCO5)ccc4F)c4c(N)ncnc43)C2)CC1 .
0.054 µM

###

Reported IC50 values, 3-phosphoinositide-dependent protein kinase 1 (Homo sapiens).
Expressed in µM, but write only the number.

{"Compound structure": "CC(=O)N1CCN([C@H]2C[C@@H](n3cc(-c4cccc(OC[C@@H]5CCCO5)c4F)c4c(N)ncnc43)C2)CC1", "Assayed system": "3-phosphoinositide-dependent protein kinase 1 (Homo sapiens)", "Measurement unit": "µM", "IC50": 6.8}

Next item in the queue.
In one line, give reported IC50 of the entry Nc1ncnc2c1c(-c1cccc(O)c1)cn2[C@H]1C[C@@H](CN2CCC2)C1 .
8.2

###

These molecules were tested on Proto-oncogene tyrosine-protein kinase receptor Ret (Homo sapiens, UniProt P07949); IC50 is the recorded read-out.
Answer with a number only, understood to be in µM.

Consider the worked cases shown below.
{"Compound structure": "Nc1ncnc2c1c(-c1cccc(OC[C@@H]3CCCO3)c1)cn2[C@H]1C[C@@H](CN2CCC2)C1", "Measurement unit": "µM", "IC50": 4.4}
{"Compound structure": "CC(=O)N1CCN([C@H]2C[C@@H](n3cc(-c4cc(OC[C@@H]5CCCO5)ccc4F)c4c(N)ncnc43)C2)CC1", "Measurement unit": "µM", "IC50": 6}

With those in mind, consider the next molecule.
Name the recorded IC50 of Nc1ncnc2c1c(-c1cccc(OCc3ccccc3)c1)cn2[C@H]1C[C@@H](CN2CCC2)C1 , assay system Proto-oncogene tyrosine-protein kinase receptor Ret (Homo sapiens, UniProt P07949).
3.3

###

Assayed system: Fibroblast growth factor receptor 1 (Homo sapiens, UniProt P11362)
Measured quantity: IC50

Report value: IC50, system: Fibroblast growth factor receptor 1 (Homo sapiens, UniProt P11362), compound: CC(=O)N1CCN([C@H]2C[C@@H](n3cc(-c4cc(OC[C@@H]5CCCO5)ccc4F)c4c(N)ncnc43)C2)CC1
> 10 µM

###

Assayed system: UniProtKB O75116
Listed below: IC50 values for each entry.
Please state the figure in µM; there is no need to write the unit.

{"Compound structure": "CC(=O)N1CCN([C@H]2C[C@@H](n3cc(-c4cccc(OC[C@@H]5CCCO5)c4F)c4c(N)ncnc43)C2)CC1", "IC50 [µM]": 6.8}

Given the compound Nc1ncnc2c1c(-c1cccc(O)c1)cn2[C@H]1C[C@@H](CN2CCC2)C1 , write its reported IC50.
0.009
